# measurement target: T1, human IL-4Rα (hIL-4Rα) monomeric protein (human, UniProt P24394 26-232, limits assumed)
# T1 construct: also called hIL-4Rα antigen; barcoded hIL-4Rα
# protocol notes: barcoded-antigen count on source cell (scRNA-seq)
experimental endpoint: REGN560.L15_ab_raw
Answer format: number, then unit.

Query: I have this binder here, Table 1 Line # 18 antibody (BM_Plasma_cell) (antibody, human IgG4, V domains shown, Cloned with human IgG4/human Igk constants for Kd; barcode counts are of the source cell's own IgG) VH: EVQLVQSGAEVKKPGESLKISCKGSGYRFTTNWIGWVRQMPGKGLEWMGIIYPDDSDTRYSPSFQGQVTISADKSINTAYLHWNSLKSSDTAIYYCARGANWFDPWGQGTLVTVSS VL: EIVLTQSPGILSLSPGKRATLSCRASQSVSSNFLAWYQQKPGQAPRLLIYGTSSRANGIPDRFSGSGSGTDFTLTISGLEPEDFAEYYCQQYGSSVTFGQGTRLEIK , and I need its recorded REGN560.L15_ab_raw.
Reply: 2170 counts
